Please go through the items and note down their Tmax.
- PROCEDURE_TEXT: Tmax in female cynomolgus monkey at 675 mg/kg, po measured on day 1
- Format: ADME, organism-based, Macaca fascicularis
- APPLIED_CONDITIONS: in vivo
Answers are plain numbers, in h.

A selection of reference data follows.
{"columns": ["LINE_NOTATION", "Tmax, h"],
 "data": [
  ["CCOC(=O)[C@@H](Cc1cn(C)c2ccccc12)NC(=O)[C@@H](N)CC(C)C.Cl", 1],
  ["Cn1cc(C[C@@H](N)C(=O)O)c2ccccc21", 2]
]}

Exercise: Given the molecule CC(C)C[C@H](N)C(=O)N[C@H](Cc1cn(C)c2ccccc12)C(=O)O , write its reported Tmax.
Solution: 1.5

* * *

- MEASURED_TARGET: Solute carrier organic anion transporter family member 1B3 (Homo sapiens)
- Sequence (Q9NPD5 whole entry): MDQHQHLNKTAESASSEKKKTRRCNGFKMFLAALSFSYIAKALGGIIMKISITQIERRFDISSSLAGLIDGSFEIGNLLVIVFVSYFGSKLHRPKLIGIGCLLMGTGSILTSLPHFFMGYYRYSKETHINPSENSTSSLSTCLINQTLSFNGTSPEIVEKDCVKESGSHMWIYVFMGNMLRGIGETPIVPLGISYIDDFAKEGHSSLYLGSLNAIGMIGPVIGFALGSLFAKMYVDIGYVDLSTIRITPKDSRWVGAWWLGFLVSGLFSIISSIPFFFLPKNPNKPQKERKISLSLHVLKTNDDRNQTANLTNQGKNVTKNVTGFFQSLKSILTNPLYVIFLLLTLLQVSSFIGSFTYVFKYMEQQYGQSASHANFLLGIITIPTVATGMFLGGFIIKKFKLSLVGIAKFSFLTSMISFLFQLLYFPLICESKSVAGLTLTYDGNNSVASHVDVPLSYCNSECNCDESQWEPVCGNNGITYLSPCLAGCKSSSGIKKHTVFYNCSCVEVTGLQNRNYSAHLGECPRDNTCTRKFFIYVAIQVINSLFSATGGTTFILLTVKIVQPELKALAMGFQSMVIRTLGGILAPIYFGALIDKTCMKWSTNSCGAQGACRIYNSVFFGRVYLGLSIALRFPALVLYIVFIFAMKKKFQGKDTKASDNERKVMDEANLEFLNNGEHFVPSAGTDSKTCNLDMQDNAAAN
- PROCEDURE_TEXT: Inhibition of OATP1B3 (unknown origin) expressed in HEK293 cells
pIC50: −log10 of the molar value.
ASSAY_METRIC: pIC50

Exercise: Query pIC50 for CCOC(=O)[C@@H](Cc1cn(C)c2ccccc12)NC(=O)[C@@H](N)CC(C)C.Cl
Solution: < 4.30

* * *

Consider the following compounds; for each one, report its Tmax.
- PROCEDURE_TEXT: Tmax in female cynomolgus monkey at 75 mg/kg, po measured on day 8
- Type: ADME, organism-based, Macaca fascicularis
- APPLIED_CONDITIONS: in vivo

{"columns": ["COMPOUND", "Tmax"],
 "data": [
  ["CCOC(=O)[C@@H](Cc1cn(C)c2ccccc12)NC(=O)[C@@H](N)CC(C)C.Cl", "2 h"]
]}

We next turn to a different compound, shown below.
Exercise: Write down Tmax measured for item Cn1cc(C[C@@H](N)C(=O)O)c2ccccc21 [INDOXIMOD]
Solution: 1 h

* * *

- PROCEDURE_TEXT: AUC (0 to infinity) in human at 2400 mg administered bid
- Type: ADME
- Set-up: time infinity, dose 2400 mg
- APPLIED_CONDITIONS: in vivo
ASSAY_METRIC: AUC(0-inf) (µM·h)
One number for each entry, in µM·h.

Exercise: State its AUC(0-inf) for this molecule: Cn1cc(C[C@@H](N)C(=O)O)c2ccccc21 [INDOXIMOD]
Solution: 170

* * *

- PROCEDURE_TEXT: Clearance in female cynomolgus monkey at 15 mg/kg, iv measured on day 1
- Format: ADME, organism-based, Macaca fascicularis
- APPLIED_CONDITIONS: in vivo, time 1 day
ASSAY_METRIC: clearance
Remember to follow the number with its unit.

Exercise: Complete the entry with clearance for Cn1cc(C[C@@H](N)C(=O)O)c2ccccc21
Solution: 10.2 mL/min/kg

* * *

- PROCEDURE_TEXT: Half life in male cynomolgus monkey at 225 mg/kg, po measured on day 1
- Assay type: ADME, organism-based, Macaca fascicularis
- APPLIED_CONDITIONS: in vivo
ASSAY_METRIC: half-life

Exercise: Report half-life, nothing else, for this compound: Cn1cc(C[C@@H](N)C(=O)O)c2ccccc21
Solution: 2.9 h

* * *

- PROCEDURE_TEXT: Half life in mouse at 1147 micromol/kg administered as single dose
- Type: ADME
- APPLIED_CONDITIONS: in vivo, dose 1147 µmol/kg
ASSAY_METRIC: half-life (h)
Give bare numbers, in h.

Dear reader, for each entry below, please note its half-life.
1. CCOC(=O)[C@@H](Cc1cn(C)c2ccccc12)NC(=O)[C@@H](N)CC(C)C.Cl
2. Cn1cc(C[C@@H](N)C(=O)O)c2ccccc21

Solution:
3.2
3.4
